Data origin: patent US20230143612A1

- STUDY_SYSTEM: PD-L1 His protein / PD-1 Fc protein (Homo sapiens)
- Sequence (Q9NZQ7 19-238 limits assumed): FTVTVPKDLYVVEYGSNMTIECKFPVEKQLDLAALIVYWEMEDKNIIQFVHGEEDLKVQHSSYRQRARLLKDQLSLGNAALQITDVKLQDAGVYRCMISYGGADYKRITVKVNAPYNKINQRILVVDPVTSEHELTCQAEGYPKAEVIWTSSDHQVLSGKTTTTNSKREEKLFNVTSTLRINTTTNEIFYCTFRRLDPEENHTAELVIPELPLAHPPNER
- TEST_DETAILS: HTRF Assay (PD-1/PD-L1 interaction)
- STATED_CONDITIONS: PD-L1 His 6 nM, PD-1 Fc 6 nM
Below: a set of entries, each annotated with reported IC50.
Give the value, in units of nM, as a plain number.

COc1nc(-c2cccc(-c3cccc(-c4ccn5c(=O)c(CNC[C@@H]6CCC(=O)N6)ccc5c4)c3Cl)c2Cl)ccc1CNC[C@@H]1CCC(=O)N1 = 2.5
COc1nc(-c2cccc(-c3cccc(-c4ccn5c(=O)c(CN[C@H]6C[C@](C)(O)C6)c(C)nc5c4)c3Cl)c2Cl)ccc1CNC[C@@H]1CCC(=O)N1 = 0.1
Cc1c(COc2cc(OCc3cncc(C#N)c3)c(CNCCO)cc2Cl)cccc1-c1cccc(-c2cnc3cc(CNCCO)ccn3c2=O)c1C = 2
COc1nc(-c2cccc(-c3cccc(-c4cc(C)n5c(=O)c(CNC[C@@H]6CCC(=O)N6)cnc5c4)c3Cl)c2Cl)ccc1CNC[C@@H]1CCC(=O)N1 = 44
O=C1CC[C@@H](CNCc2ccc3nc(-c4cccc(-c5cccc(-c6cc(=O)n7cc(CNC[C@@H]8CCC(=O)N8)ccc7n6)c5Cl)c4Cl)cc(=O)n3c2)N1 = 460
COc1nc(-c2cccc(-c3cccc(-c4ccn5c(=O)c(CNC[C@H](C)N)cnc5c4)c3Cl)c2Cl)ccc1CNC[C@@H]1CCC(=O)N1 = 25
COc1nc(-c2cccc(-c3cccc(-c4ccn5c(=O)c(CN6CCCC[C@H]6C(=O)O)cnc5c4)c3Cl)c2Cl)ccc1CNC[C@@H]1CCC(=O)N1 = 0.3
COc1nc(-c2cccc(-c3cccc(-c4ccn5c(=O)c(CNCCO)cnc5c4)c3Cl)c2Cl)cc(Cl)c1CNC[C@@H]1CCC(=O)N1 = 110

Find the measured IC50: item COc1nc(-c2cccc(-c3cccc(-c4ccc5nn(CCCN(CC(C)C)CC(C)C)c(=O)n5c4)c3Cl)c2Cl)ccc1CNC[C@@H]1CCC(=O)N1 , target or system PD-L1 His protein / PD-1 Fc protein (Homo sapiens).
6.7

Find the measured IC50: item COc1cc(-c2cccc(-c3cccc(-c4ccn5c(=O)c(CNC[C@@H]6CCC(=O)N6)cnc5c4)c3Cl)c2Cl)cnc1CNC[C@@H]1CCC(=O)N1 , target or system PD-L1 His protein / PD-1 Fc protein (Homo sapiens).
0.7

Find the measured IC50: item COc1nc(-c2cccc(-c3cccc(-c4ccc5c(CNC[C@H](C)O)cn(C)c5n4)c3Cl)c2Cl)ccc1CNC[C@@H]1CCC(=O)N1 , target or system PD-L1 His protein / PD-1 Fc protein (Homo sapiens).
1.6

Find the measured IC50: item COc1nc(-c2cccc(-c3cccc(-c4ccc5nc(CNC[C@@H]6CCC(=O)N6)cc(=O)n5c4)c3Cl)c2Cl)ccc1CNC[C@@H]1CCC(=O)N1 , target or system PD-L1 His protein / PD-1 Fc protein (Homo sapiens).
0.1

Find the measured IC50: item COc1nc(-c2cccc(-c3cccc(-c4ccc5nc(CNC[C@H](C)O)cn5n4)c3Cl)c2Cl)ccc1CNC[C@@H]1CCC(=O)N1 , target or system PD-L1 His protein / PD-1 Fc protein (Homo sapiens).
0.8

Find the measured IC50: item COc1nc(-c2cccc(-c3cccc(-c4ccn5c(=O)c(CNCC6(C)CCC(=O)N6)cnc5c4)c3Cl)c2Cl)ccc1CNC[C@@H]1CCC(=O)N1 (some centres unmarked) , target or system PD-L1 His protein / PD-1 Fc protein (Homo sapiens).
1
